System: Coxsackievirus B4
ASSAY PROTOCOL: Antiviral activity against Coxsackievirus B4 infected in human HeLa cells assessed as inhibition of virus-induced cytopathicity at 100 uM
Format: functional, organism-based
Activity calls are given as the source filed them. The calls are words filed in the database; no cut-off is given here.

[
  {
    "STRUCTURE NOTATION": "N#C[C@]1(O)[C@H](O)[C@@H](CO)O[C@@H](n2cc(F)c(O)nc2=O)[C@@H]1O",
    "inhibition": "inactive"
  },
  {
    "STRUCTURE NOTATION": "N#C[C@]1(O)[C@H](O)[C@@H](CO)O[C@@H](n2ccc(N)nc2=O)[C@@H]1O",
    "inhibition": "inactive"
  },
  {
    "STRUCTURE NOTATION": "N#C[C@H]1[C@@H](O)[C@H](n2cc(F)c(O)nc2=O)O[C@H](CO)[C@H]1O",
    "inhibition": "inactive"
  },
  {
    "STRUCTURE NOTATION": "Cc1cn([C@@H]2O[C@H](CO)[C@@H](O)[C@@](O)(C#N)[C@H]2O)c(=O)nc1O",
    "inhibition": "inactive"
  },
  {
    "STRUCTURE NOTATION": "N#C[C@]1(O)[C@H](O)[C@@H](CO)O[C@@H](n2ccc(O)nc2=O)[C@@H]1O",
    "inhibition": "inactive"
  },
  {
    "STRUCTURE NOTATION": "Cc1cn([C@@H]2O[C@H](CO)[C@@H](O)[C@@H](C#N)[C@H]2O)c(=O)nc1O",
    "inhibition": "inactive"
  },
  {
    "STRUCTURE NOTATION": "N#C[C@H]1[C@@H](O)[C@H](n2ccc(O)nc2=O)O[C@H](CO)[C@H]1O",
    "inhibition": "inactive"
  },
  {
    "STRUCTURE NOTATION": "N#C[C@H]1[C@@H](O)[C@H](n2ccc(N)nc2=O)O[C@H](CO)[C@H]1O",
    "inhibition": "inactive"
  }
]

###

Tested on: Human respirovirus 3
ASSAY PROTOCOL: Antiviral activity against Parainfluenza 3 virus infected in african green monkey Vero cells assessed as inhibition of virus-induced cytopathicity at 100 uM
Format: functional, organism-based
Active and inactive are the calls of the source. No cut-off for these calls is given here.
ENDPOINT NAME: inhibition

[
  {
    "STRUCTURE NOTATION": "N#C[C@H]1[C@@H](O)[C@H](n2cc(F)c(O)nc2=O)O[C@H](CO)[C@H]1O",
    "MEASUREMENT": "inactive"
  },
  {
    "STRUCTURE NOTATION": "N#C[C@]1(O)[C@H](O)[C@@H](CO)O[C@@H](n2ccc(O)nc2=O)[C@@H]1O",
    "MEASUREMENT": "inactive"
  },
  {
    "STRUCTURE NOTATION": "N#C[C@H]1[C@@H](O)[C@H](n2ccc(N)nc2=O)O[C@H](CO)[C@H]1O",
    "MEASUREMENT": "inactive"
  },
  {
    "STRUCTURE NOTATION": "N#C[C@]1(O)[C@H](O)[C@@H](CO)O[C@@H](n2ccc(N)nc2=O)[C@@H]1O",
    "MEASUREMENT": "inactive"
  },
  {
    "STRUCTURE NOTATION": "Cc1cn([C@@H]2O[C@H](CO)[C@@H](O)[C@@](O)(C#N)[C@H]2O)c(=O)nc1O",
    "MEASUREMENT": "inactive"
  },
  {
    "STRUCTURE NOTATION": "N#C[C@]1(O)[C@H](O)[C@@H](CO)O[C@@H](n2cc(F)c(O)nc2=O)[C@@H]1O",
    "MEASUREMENT": "inactive"
  },
  {
    "STRUCTURE NOTATION": "N#C[C@H]1[C@@H](O)[C@H](n2ccc(O)nc2=O)O[C@H](CO)[C@H]1O",
    "MEASUREMENT": "inactive"
  },
  {
    "STRUCTURE NOTATION": "Cc1cn([C@@H]2O[C@H](CO)[C@@H](O)[C@@H](C#N)[C@H]2O)c(=O)nc1O",
    "MEASUREMENT": "inactive"
  }
]

Numbers sourced from ChEMBL document CHEMBL1909580.
